assay: Metabolic stability evaluation in human liver microsome; assay type: in vitro ADME; details: liver microsomes, pH 7.4; human liver microsome 0.2 mg/mL protein, test compound 1 μmol/L, β-NADPH, 37° C., 30 min; average of two samples; read-out: hCLint (converted)
Below, each entry is listed alongside its reported CLint scaled at 1 μmol/L.
Report the value in mL/min/kg with no unit label.

- compound: "C/C(=C1/c2ccc(Cc3c(C)nc4cc(C5CC5)ccn34)cc2COc2cc(F)ccc21)c1noc(=O)[nH]1 [Compound 14g]"
  CLint scaled at 1 μmol/L / mL/min/kg: 28.3
- compound: "C/C(=C1/c2ccc(Cn3c(C4CCC4)nc4c(Cl)nccc43)cc2COc2cc(F)ccc21)c1noc(=O)[nH]1 [Compound 3b]"
  CLint scaled at 1 μmol/L / mL/min/kg: 9.5
- compound: "C/C(=C1/c2ccc(Cc3c(C)nc4cc(C(F)(F)F)ccn34)cc2COc2cc(F)ccc21)c1noc(=O)[nH]1 [Compound 11b]"
  CLint scaled at 1 μmol/L / mL/min/kg: 35
- compound: "C/C(=C1/c2ccc(Cc3c(C4CC4)nc4cc(Cl)ccn34)cc2COc2cc(F)ccc21)c1noc(=O)[nH]1 [Compound 10a]"
  CLint scaled at 1 μmol/L / mL/min/kg: 102
- compound: "COCc1nc2cscc2n1Cc1ccc2c(c1)COc1cc(F)ccc1/C2=C(\\C)c1noc(=O)[nH]1 [Compound 13d]"
  CLint scaled at 1 μmol/L / mL/min/kg: 26.7

The compound listed as CCCc1nc2ccccc2n1Cc1ccc2c(c1)COc1c(ccc(F)c1F)/C2=C(\C)c1noc(=O)[nH]1 [Compound 7a] shows CLint scaled at 1 μmol/L equal to 48.3

The compound listed as C/C(=C1/c2ccc(Cn3c(CN(C)C)nc4ccccc43)cc2COc2cc(F)ccc21)c1noc(=O)[nH]1 [Compound 4a] has a reported CLint scaled at 1 μmol/L of 31.7

For this compound ( C/C(=C1/c2ccc(Cc3c(C4CC4)nc4c(F)cccn34)cc2COc2cc(F)ccc21)c1noc(=O)[nH]1 [Compound 9i] ), measured CLint scaled at 1 μmol/L is 71.7

* * *

Assay: Metabolic stability evaluation in human liver microsome
Type: in vitro ADME
Details: liver microsomes, pH 7.4; human liver microsome 0.2 mg/mL protein, test compound 1 μmol/L, β-NADPH, 37° C., 30 min; average of two samples; read-out: hCLint (converted)
Procedure: Human liver microsome (pool of 50 donors) was purchased from XenoTech. A reaction mixture containing phosphate buffer (100 mmol/L, pH 7.4), ethylenediamine tetraacetic acid (0.1 mmol/L), magnesium chloride (6 mmol/L), human liver microsome (0.2 mg/mL protein) and test compound (1 μmol/L) was prepared. […] The protein was removed with acetonitrile from the sample after the reaction and the sample was measured by LC-MS/MS. […]
endpoint_label: CLint scaled at 1 μmol/L (mL/min/kg)
Kindly answer with a numeric value in mL/min/kg, unit omitted.

# count of solved cases: 6
- compound: "[2H]C([2H])([2H])Oc1cccn2c(Cc3ccc4c(c3)COc3cc(F)ccc3/C4=C(\\C)c3noc(=O)[nH]3)c(C3CC3)nc12"
  CLint scaled at 1 μmol/L, mL/min/kg: 25
- compound: "C/C(=C1/c2ccc(Cc3c(C#N)nc4cc(F)ccn34)cc2COc2cc(F)ccc21)c1noc(=O)[nH]1 [Compound 14i]"
  CLint scaled at 1 μmol/L, mL/min/kg: 127
- compound: "COCc1nc2ccccn2c1Cc1ccc2c(c1)COc1cc(F)ccc1/C2=C(\\C)c1noc(=O)[nH]1"
  CLint scaled at 1 μmol/L, mL/min/kg: 16.7
- compound: "O=c1[nH]c(/C(=C2\\c3ccc(Cc4c(C5CC5)nc5c(Cl)cccn45)cc3COc3cc(F)ccc32)C2CC2)no1 [Compound 12a]"
  CLint scaled at 1 μmol/L, mL/min/kg: 78.3
- compound: "C/C(=C1/c2ccc(Cn3c(C4CC(F)(F)C4)nc4ccccc43)cc2COc2cc(F)ccc21)c1noc(=O)[nH]1"
  CLint scaled at 1 μmol/L, mL/min/kg: 28.3
- compound: "CCCc1nc2ccccc2n1Cc1ccc2c(c1)COc1cc(F)ccc1/C2=C(/c1noc(=O)[nH]1)C1CC1"
  CLint scaled at 1 μmol/L, mL/min/kg: 78.3

Read the next record carefully.
Memo: COCc1nc2cc(Cl)ccn2c1Cc1ccc2c(c1)COc1cc(F)ccc1/C2=C(\C)c1noc(=O)[nH]1 [Compound 10e] , reported CLint scaled at 1 μmol/L: 40

* * *

molecular target: GAL4-PPAR γ chimeric nuclear receptor (human PPAR γ ligand binding domain) (Homo sapiens, UniProt P37231); assay: PPAR γ transactivation assay by transient gene transfer (GAL4-PPAR γ chimeric receptor, luciferase reporter, HEK293EBNA cells); details: concentration showing 50% of efficacy (maximum activity rate relative to pioglitazone = 100%), 24 hr
endpoint_label: log10 of EC50 (log10 of the value in nM)
# log10 transformed; quantity=EC50; unit=nM

Value of log10 of EC50 reported for the compound [2H]C([2H])([2H])Oc1cccn2c(Cc3ccc4c(c3)COc3cc(F)ccc3/C4=C(\C)c3noc(=O)[nH]3)c(C3CC3)nc12 [Compound 9h] is 1.08

What the record says about C#Cc1ccn2c(Cc3ccc4c(c3)COc3cc(F)ccc3/C4=C(\C)c3noc(=O)[nH]3)c(C)nc2c1 [Compound 14h] : log10 of EC50 is 2.48

Record C/C(=C1/c2ccc(Cc3c(C4CC4)nc4c(F)cccn34)cc2COc2cc(F)ccc21)c1noc(=O)[nH]1 [Compound 9i] . Reported log10 of EC50: 1.14

Summary for this compound, CCCc1nc2c(C)nccn2c1Cc1ccc2c(c1)COc1cc(F)ccc1/C2=C(\C)c1noc(=O)[nH]1 [Compound 14d] : log10 of EC50 is 0.87

log10 of EC50 in this record for C/C(=C1/c2ccc(Cn3c(C4CCC4)nc4nc(F)ccc43)cc2COc2cc(F)ccc21)c1noc(=O)[nH]1 [Compound 3i] : 0.93

Documented log10 of EC50 of CCCc1nc2ccccc2n1Cc1ccc2c(c1)COc1c(ccc(F)c1F)/C2=C(\C)c1noc(=O)[nH]1 [Compound 7a] : 1.44

Entry C/C(=C1/c2ccc(Cc3c(C4CC4)nc4cc(Cl)ccn34)cc2COc2cc(F)ccc21)c1noc(=O)[nH]1 [Compound 10a] ; log10 of EC50 = 0.81

* * *

Molecular target: GAL4-PPAR γ chimeric nuclear receptor (human PPAR γ ligand binding domain) (Homo sapiens, UniProt P37231)
Sequence (P37231 174-475 isoform P37231-2): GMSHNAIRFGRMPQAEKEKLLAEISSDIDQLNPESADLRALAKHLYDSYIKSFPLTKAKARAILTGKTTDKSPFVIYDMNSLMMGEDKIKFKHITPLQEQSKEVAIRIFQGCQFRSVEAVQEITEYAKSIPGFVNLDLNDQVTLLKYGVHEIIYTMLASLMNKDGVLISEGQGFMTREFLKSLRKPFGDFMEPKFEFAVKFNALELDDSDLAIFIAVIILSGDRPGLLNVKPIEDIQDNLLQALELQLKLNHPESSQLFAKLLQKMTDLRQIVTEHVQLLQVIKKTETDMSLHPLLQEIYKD
Experiment: PPAR γ transactivation assay by transient gene transfer (GAL4-PPAR γ chimeric receptor, luciferase reporter, HEK293EBNA cells)
Conditions: concentration showing 50% of efficacy (maximum activity rate relative to pioglitazone = 100%), 24 hr
// reported EC50 for each item listed
Write the numeric value and append its unit.

Field EC50 (entry "COCc1nc2ccccn2c1Cc1ccc2c(c1)COc1cc(F)ccc1/C2=C(\C)c1noc(=O)[nH]1" ) reads 0.0317 µM

molecule O=c1[nH]c(/C(=C2\c3ccc(Cc4c(C5CC5)nc5ccccn45)cc3COc3cc(F)ccc32)C2CC2)no1 [Compound 12c] , EC50 observed: 0.0782 µM

In plain terms, "C/C(=C1/c2ccc(Cn3c(C4CC4)nc4ccccc43)cc2COc2cc(F)ccc21)c1noc(=O)[nH]1" has a documented EC50 of 0.009 µM

* * *

Assay: Metabolic stability evaluation in human liver microsome
Type: in vitro ADME
Conditions: liver microsomes, pH 7.4; human liver microsome 0.2 mg/mL protein, test compound 1 μmol/L, β-NADPH, 37° C., 30 min; average of two samples; read-out: hCLint (converted)
Experimental: Human liver microsome (pool of 50 donors) was purchased from XenoTech. A reaction mixture containing phosphate buffer (100 mmol/L, pH 7.4), ethylenediamine tetraacetic acid (0.1 mmol/L), magnesium chloride (6 mmol/L), human liver microsome (0.2 mg/mL protein) and test compound (1 μmol/L) was prepared. […] The protein was removed with acetonitrile from the sample after the reaction and the sample was measured by LC-MS/MS. […]
Consider the following molecules and their measured CLint scaled at 1 μmol/L readings.
State just the number; it will be interpreted in mL/min/kg.

Reference set, count: 5
- molecule: "C/C(=C1/c2ccc(Cc3c(C4CC4)nc4ccccn34)cc2COc2cc(F)ccc21)c1noc(=O)[nH]1"
  units_label: "mL/min/kg"
  CLint scaled at 1 μmol/L: 40
- molecule: "C/C(=C1/c2ccc(Cc3c(C4CC4)nc4c(Cl)cccn34)cc2COc2cc(F)ccc21)c1noc(=O)[nH]1"
  units_label: "mL/min/kg"
  CLint scaled at 1 μmol/L: 36.7
- molecule: "O=c1[nH]c(/C(=C2\\c3ccc(Cc4c(C5CC5)nc5ccccn45)cc3COc3cc(F)ccc32)C2CC2)no1 [Compound 12c]"
  units_label: "mL/min/kg"
  CLint scaled at 1 μmol/L: 65
- molecule: "C/C(=C1/c2ccc(Cc3c(C4CC4)nc4cc(F)ccn34)cc2COc2cc(F)ccc21)c1noc(=O)[nH]1 [Compound 10c]"
  units_label: "mL/min/kg"
  CLint scaled at 1 μmol/L: 65
- molecule: "CCCc1nc2c(C)nccn2c1Cc1ccc2c(c1)COc1cc(F)ccc1/C2=C(\\C)c1noc(=O)[nH]1 [Compound 14d]"
  units_label: "mL/min/kg"
  CLint scaled at 1 μmol/L: 61.7

"C/C(=C1/c2ccc(Cc3c(C(C)C)nc4ccccn34)cc2COc2cc(F)ccc21)c1noc(=O)[nH]1" yielded CLint scaled at 1 μmol/L of 50

Form field CLint scaled at 1 μmol/L, entry "[2H]C([2H])([2H])Oc1cccc2c1nc(COC)n2Cc1ccc2c(c1)COc1cc(F)ccc1/C2=C(\C)c1noc(=O)[nH]1" : 7.33

These data points were gathered from patent US8969345B2.
